Test: Adsorbent study: binding affinity and adsorptive capacity for 3-NOP, HPLC at 230 nm
Conditions: 0.2 g of adsorbent in 10 mL of 1% 3-NOP/H2O, after 24h; control 8.258 mM
I'd appreciate it if you could supply 3-NOP concentration values for the items below.

Entry NC(=O)CC[C@H](N)C(=O)O needs its 3-NOP concentration filled in; supply it.
7.588 mM

# return recorded 3-NOP concentration for entry O=S(=O)([O-])[O-].[Cu+2] [Copper Sulfate]
7.814 mM

For O=S(=O)([O-])[O-].O=S(=O)([O-])[O-].O=S(=O)([O-])[O-].[Bi+3].[Bi+3] [Bismuth Sulfate] , write its 3-NOP concentration.
8.079 mM

Specify 3-NOP concentration for O=C([O-])CC(O)(CC(=O)[O-])C(=O)[O-].[Bi+3] [Bismuth Citrate] and stop.
8.072 mM

Please indicate 3-NOP concentration recorded for C[N+](C)(C)CC(=O)O
7.202 mM
